TEST_SUMMARY: Solubility test of curcumin in oils, surfactants, milk, BSA and casein
Format: physicochemical
MEASUREMENT_PARAMETERS: oil or lipid, thermodynamic from solid; in Arachis Oil; 37° C., 72 h; read-out: Solubility of Curcumin in oils, Sol
READOUT_KIND: solubility at 72 h

INPUT: For the compound `COc1cc(/C=C/C(=O)/C=C(O)/C=C/c2ccc(O)c(OC)c2)ccc1O` , give its measured solubility at 72 h value.
OUTPUT: 160 µg/mL

* * *

TEST_SUMMARY: Solubility test of curcumin in oils, surfactants, milk, BSA and casein
Type: physicochemical
MEASUREMENT_PARAMETERS: 37 °C, plasma or biological fluid, thermodynamic from solid; in Casein; read-out: Solubility of Curcumin in milk, BSA and Casein
READOUT_KIND: solubility at 72 h (µg/mL)
Could you give me the number in µg/mL? Just the number is fine.

INPUT: Determine its reported solubility at 72 h: `COc1cc(/C=C/C(=O)/C=C(O)/C=C/c2ccc(O)c(OC)c2)ccc1O`
OUTPUT: 14

* * *

TEST_SUMMARY: Solubility test of curcumin in oils, surfactants, milk, BSA and casein
Type: physicochemical
MEASUREMENT_PARAMETERS: Palm Rose oil, oil or lipid, thermodynamic from solid; in Palm Rose; 37° C., 72 h; read-out: Solubility of Curcumin in oils, Sol
READOUT_KIND: solubility at 72 h

INPUT: Give the measured solubility at 72 h for `COc1cc(/C=C/C(=O)/C=C(O)/C=C/c2ccc(O)c(OC)c2)ccc1O`
OUTPUT: 6030 µg/mL

* * *

TEST_SUMMARY: Solubility test of curcumin in oils, surfactants, milk, BSA and casein
Assay type: physicochemical
MEASUREMENT_PARAMETERS: organic solvent or mixture, thermodynamic from solid; in PEG 400 (100% conc); 37° C., 72 h; read-out: Solubility of Curcumin in surfactants, Sol
READOUT_KIND: solubility at 72 h
# do not omit the unit; it follows the number

INPUT: Please give measured solubility at 72 h of the following entry: `COc1cc(/C=C/C(=O)/C=C(O)/C=C/c2ccc(O)c(OC)c2)ccc1O`
OUTPUT: 512 µg/mL

* * *

TEST_SUMMARY: Solubility test of curcumin in oils, surfactants, milk, BSA and casein
Format: physicochemical
MEASUREMENT_PARAMETERS: coconut oil, oil or lipid, thermodynamic from solid; in Cocconut Oil; 37° C., 72 h; read-out: Solubility of Curcumin in oils, Sol
READOUT_KIND: solubility at 72 h (µg/mL)
Please state the figure in µg/mL; there is no need to write the unit.

INPUT: Provide measured solubility at 72 h value, entry: COc1cc(/C=C/C(=O)/C=C(O)/C=C/c2ccc(O)c(OC)c2)ccc1O [Curcumin, curcumin]
OUTPUT: 1680

* * *

TEST_SUMMARY: Solubility test of curcumin in oils, surfactants, milk, BSA and casein
Type: physicochemical
MEASUREMENT_PARAMETERS: Castor oil, oil or lipid, thermodynamic from solid; in Castor; 37° C., 72 h; read-out: Solubility of Curcumin in oils, Sol
READOUT_KIND: solubility at 72 h
Form entry: enter the amount, then its unit.

INPUT: Name the recorded solubility at 72 h of the item `COc1cc(/C=C/C(=O)/C=C(O)/C=C/c2ccc(O)c(OC)c2)ccc1O` in your answer.
OUTPUT: 4420 µg/mL

* * *

TEST_SUMMARY: Solubility test of curcumin in oils, surfactants, milk, BSA and casein
Type: physicochemical
MEASUREMENT_PARAMETERS: organic solvent or mixture, thermodynamic from solid; in CREMOPHOR® EL (100% conc); 37° C., 72 h; read-out: Solubility of Curcumin in surfactants, Sol
READOUT_KIND: solubility at 72 h (mg/mL)
Please give a number only; it is taken to be in mg/mL.

INPUT: Identify measured solubility at 72 h corresponding to `COc1cc(/C=C/C(=O)/C=C(O)/C=C/c2ccc(O)c(OC)c2)ccc1O`
OUTPUT: 36.6

* * *

TEST_SUMMARY: Solubility test of curcumin in oils, surfactants, milk, BSA and casein
Type: physicochemical
MEASUREMENT_PARAMETERS: Citronella oil, oil or lipid, thermodynamic from solid; in Citronella; 37° C., 72 h; read-out: Solubility of Curcumin in oils, Sol
READOUT_KIND: solubility at 72 h (mg/mL)
All answers are understood in mg/mL, so give the number only.

INPUT: For the compound `COc1cc(/C=C/C(=O)/C=C(O)/C=C/c2ccc(O)c(OC)c2)ccc1O` , give its measured solubility at 72 h value.
OUTPUT: 13.2

* * *

TEST_SUMMARY: Solubility test of curcumin in oils, surfactants, milk, BSA and casein
Type: physicochemical
MEASUREMENT_PARAMETERS: aqueous with cosolvent or surfactant or cyclodextrin, thermodynamic from solid; in TWEEN® 80 (100% conc); 37° C., 72 h; read-out: Solubility of Curcumin in surfactants, Sol
Method: The solubility of curcumin in a number of oils such as citronella oil, castor oil, ethyl oleate, and palm rose oil, coconut oil, CAPRYOL™ 90 and a number of surfactants such as TWEEN® 80, CREMOPHOR® EL, PEG 200 and TRANSCUTOL® HP were determined in order to find out the appropriate oils and surfactants as compositions of SNEDDS. Solubility was also determined in milk, BSA and casein. An excess amount of curcumin was added to 5 ml of oil or surfactant solutions. […]
READOUT_KIND: solubility at 72 h (µg/mL)
Output spec: scalar in µg/mL, unitless text.

INPUT: Kindly indicate its recorded solubility at 72 h. Item: `COc1cc(/C=C/C(=O)/C=C(O)/C=C/c2ccc(O)c(OC)c2)ccc1O`
OUTPUT: 484

* * *

TEST_SUMMARY: Solubility test of curcumin in oils, surfactants, milk, BSA and casein
Type: physicochemical
MEASUREMENT_PARAMETERS: Lavender oil, oil or lipid, thermodynamic from solid; in Lavender; 37° C., 72 h; read-out: Solubility of Curcumin in oils, Sol
READOUT_KIND: solubility at 72 h (µg/mL)
Please give a number only; it is taken to be in µg/mL.

INPUT: For the molecule `COc1cc(/C=C/C(=O)/C=C(O)/C=C/c2ccc(O)c(OC)c2)ccc1O` , report solubility at 72 h.
OUTPUT: 3440

* * *

TEST_SUMMARY: Solubility test of curcumin in oils, surfactants, milk, BSA and casein
Assay type: physicochemical
MEASUREMENT_PARAMETERS: oil or lipid, thermodynamic from solid; in Emu oil; 37° C., 72 h; read-out: Solubility of Curcumin in oils, Sol
READOUT_KIND: solubility at 72 h (µg/mL)
Write it as a number; the unit µg/mL goes unstated.

INPUT: // fetch solubility at 72 h given entry `COc1cc(/C=C/C(=O)/C=C(O)/C=C/c2ccc(O)c(OC)c2)ccc1O`
OUTPUT: 1580

* * *

TEST_SUMMARY: Solubility test of curcumin in oils, surfactants, milk, BSA and casein
Type: physicochemical
MEASUREMENT_PARAMETERS: oil or lipid, thermodynamic from solid; in CAPRYOL™ 90; 37° C., 72 h; read-out: Solubility of Curcumin in oils, Sol
READOUT_KIND: solubility at 72 h (µg/mL)
Hi! Could you send only the number? It should be in µg/mL, unit omitted.

INPUT: Answer with reported solubility at 72 h of `COc1cc(/C=C/C(=O)/C=C(O)/C=C/c2ccc(O)c(OC)c2)ccc1O`
OUTPUT: 7580

* * *

TEST_SUMMARY: Solubility test of curcumin in oils, surfactants, milk, BSA and casein
Format: physicochemical
MEASUREMENT_PARAMETERS: olive oil, oil or lipid, thermodynamic from solid; in Oilve; 37° C., 72 h; read-out: Solubility of Curcumin in oils, Sol
READOUT_KIND: solubility at 72 h (µg/mL)
Express the result in µg/mL but write the number alone.

INPUT: Please report the measured solubility at 72 h for `COc1cc(/C=C/C(=O)/C=C(O)/C=C/c2ccc(O)c(OC)c2)ccc1O`
OUTPUT: 501

* * *

TEST_SUMMARY: Solubility test of curcumin in oils, surfactants, milk, BSA and casein
Type: physicochemical
MEASUREMENT_PARAMETERS: oil or lipid, thermodynamic from solid; in IPM; 37° C., 72 h; read-out: Solubility of Curcumin in oils, Sol
READOUT_KIND: solubility at 72 h (µg/mL)
Form entry: value (µg/mL) — number only.

INPUT: Give solubility at 72 h for `COc1cc(/C=C/C(=O)/C=C(O)/C=C/c2ccc(O)c(OC)c2)ccc1O`
OUTPUT: 1130

Taken from patent US8835509B2.
